Values from BigSolDB 2.1

conditions: in acetone, 303.15 K
readout_name: solubility (mole fraction)
The reply should be a number, written without any unit.

Entry under review: CCOC(=O)OC1=C(c2cc(C)ccc2C)C(=O)NC12CCC(OC)CC2 (stereo unspecified) . Reported solubility (mole fraction)?
0.0323

###

conditions: in methanol, 293.15 K
readout_name: solubility (mole fraction)
The reply should be a number, written without any unit.

Entry under review: CCOC(=O)OC1=C(c2cc(C)ccc2C)C(=O)NC12CCC(OC)CC2 (stereo unspecified) . Reported solubility (mole fraction)?
0.01

###

details: in isopropanol, 283.15 K
readout_name: solubility (mole fraction)
The reply should be a number, written without any unit.

Entry under review: CCOC(=O)OC1=C(c2cc(C)ccc2C)C(=O)NC12CCC(OC)CC2 (stereo unspecified) . Reported solubility (mole fraction)?
0.00232
